Just for reference, patent US10125123B2 is where these values come from.

Overview of recorded EC50 for various molecules
tgt: IRE1α (Homo sapiens)
assay.info: In vitro FRET assay (XBP1 RNA probe cleavage by IRE1α)
setup.conditions: biochemical FRET assay, 2 nM IRE1α

>  <compound.string>
O=C(Nc1ccccc1)Nc1ccc2oc(-c3cccnc3)nc2c1

>  <EC50>
> 100 µM

$$$$
>  <compound.string>
CN1CCC(Cc2ccc(NC(=O)Cc3cc(-c4ccc5nc(N)ncc5c4)n(C)n3)cc2C(F)(F)F)CC1

>  <EC50>
> 100 µM

$$$$
>  <compound.string>
CCN1CCN(Cc2ccc(NC(=O)Nc3cc(-c4ccc5ccncc5c4)n(C)n3)cc2C(F)(F)F)CC1

>  <EC50>
≤ 5 µM

$$$$

q: So what does the record say about EC50 for Cn1nc(NC(=O)NCc2ccccc2)cc1-c1ccc2ccncc2c1 ?
a: > 100 µM

q: Likewise for CN1CCN(Cc2ccc(NC(=O)Nc3cc(-c4cnc5ccccc5c4)n(C)n3)cc2C(F)(F)F)CC1 ?
a: 5 to 50 µM

q: Repeat with CN1CCN(Cc2ccc(NC(=O)Nc3nc(-c4ccc5ccncc5c4)n(C)n3)cc2C(F)(F)F)CC1
a: 5 to 50 µM

q: // repeat for CN1CCN(Cc2ccc(NC(=O)Nc3cc(-c4ccc5nc(N)nc(O)c5c4)n(C)n3)cc2C(F)(F)F)CC1 and report
a: ≤ 5 µM

q: Follow-up item: CN1CCN(Cc2ccc(NC(=O)Nc3cc(-c4ccc(-c5cccn6ccnc56)cc4)n(C)n3)cc2C(F)(F)F)CC1
a: ≤ 5 µM

---

tgt: IRE1α (Homo sapiens, UniProt O75460)
Sequence (O75460 19-977): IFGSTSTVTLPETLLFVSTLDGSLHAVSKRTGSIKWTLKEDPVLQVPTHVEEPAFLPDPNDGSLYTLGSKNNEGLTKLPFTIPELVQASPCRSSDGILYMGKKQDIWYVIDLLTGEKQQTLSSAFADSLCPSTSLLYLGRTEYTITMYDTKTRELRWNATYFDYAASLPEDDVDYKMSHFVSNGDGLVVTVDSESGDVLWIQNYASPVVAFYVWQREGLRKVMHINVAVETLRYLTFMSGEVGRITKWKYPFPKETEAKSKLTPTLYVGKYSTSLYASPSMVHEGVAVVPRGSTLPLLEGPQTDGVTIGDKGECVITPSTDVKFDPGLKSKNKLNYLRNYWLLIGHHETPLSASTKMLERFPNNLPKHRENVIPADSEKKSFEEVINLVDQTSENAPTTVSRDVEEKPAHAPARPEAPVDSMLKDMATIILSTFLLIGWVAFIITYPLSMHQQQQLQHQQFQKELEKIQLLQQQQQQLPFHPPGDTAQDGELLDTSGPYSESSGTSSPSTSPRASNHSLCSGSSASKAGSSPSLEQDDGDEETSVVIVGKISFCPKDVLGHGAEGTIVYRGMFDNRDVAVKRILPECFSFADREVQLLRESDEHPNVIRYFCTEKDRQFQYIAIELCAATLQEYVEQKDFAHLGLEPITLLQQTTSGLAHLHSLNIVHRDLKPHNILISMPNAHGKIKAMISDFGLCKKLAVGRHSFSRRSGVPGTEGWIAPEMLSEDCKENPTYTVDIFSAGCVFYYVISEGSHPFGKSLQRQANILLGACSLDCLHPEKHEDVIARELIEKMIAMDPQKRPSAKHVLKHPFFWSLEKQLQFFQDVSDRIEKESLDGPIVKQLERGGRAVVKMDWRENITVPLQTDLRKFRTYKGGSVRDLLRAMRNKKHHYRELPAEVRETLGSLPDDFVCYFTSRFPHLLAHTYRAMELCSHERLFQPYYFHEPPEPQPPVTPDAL
assay.info: In vitro FRET assay (XBP1 RNA probe cleavage by IRE1α)
setup.conditions: biochemical FRET assay, 2 nM IRE1α
pEC50: −log10 of the molar value.
Reported pEC50 values for a set of compounds

>  <compound>
O=C(Nc1ccc(CN2CCN(Cc3ccccc3)CC2)c(C(F)(F)F)c1)Nc1ccc2oc(-c3cccnc3)nc2c1 [Compound 14]

>  <reported.value>
4.00 to 4.30

$$$$
>  <compound>
O=C(Nc1cccc(C(F)(F)F)c1)Nc1ccc2oc(-c3cccnc3)nc2c1 [Compound 57]

>  <reported.value>
4.30 to 5.30

$$$$
>  <compound>
CN1CCN(CCc2cccc(NC(=O)Nc3cc(-c4ccc5ccncc5c4)n(C)n3)c2)CC1 [Compound 19]

>  <reported.value>
< 4.00

$$$$

q: So what pEC50 did CN1CCN(Cc2ccc(NC(=O)Nc3cc(-c4ccc5ccc(O)nc5c4)n(C)n3)cc2C(F)(F)F)CC1 [Compound 23] get with IRE1α (Homo sapiens, UniProt O75460)?
a: 4.30 to 5.30

---

tgt: IRE1α (Homo sapiens, UniProt O75460)
assay.info: In vitro FRET assay (XBP1 RNA probe cleavage by IRE1α)
setup.conditions: biochemical FRET assay, 2 nM IRE1α
pEC50: −log10 of the molar value.
Catalogue of pEC50 readings, one per entry.

Some compounds with recorded pEC50:
>  <compound>
CN1CCN(Cc2ccc(NC(=O)Nc3cc(-c4ccc5ccncc5c4)n(C)n3)cc2Br)CC1 [Compound 44]

>  <pEC50>
4.30 to 5.30

$$$$
>  <compound>
CN1CCN(Cc2ccc(NC(=O)Nc3cc(-c4ccc(-c5cccc6nccnc56)cc4)n(C)n3)cc2C(F)(F)F)CC1 [Compound 53]

>  <pEC50>
< 4.00

$$$$
>  <compound>
CN1CCN(Cc2ccc(NC(=O)Nc3cc(-c4ccc5cc(N)ncc5c4)n(C)n3)cc2C(F)(F)F)CC1 [Compound 26]

>  <pEC50>
≥ 5.30

$$$$

q: Item CN1CCN(Cc2ccc(NC(=O)Nc3n[nH]c4cc(-c5cnc(N)nc5)ccc34)cc2C(F)(F)F)CC1 [Compound 11] has what recorded pEC50?
a: 4.30 to 5.30

q: Entry to check: CN1CCN(Cc2ccc(NC(=O)Nc3cc(-c4ccn5ccnc5c4)n(C)n3)cc2C(F)(F)F)CC1 [Compound 4]
a: < 4.00

q: Likewise for O=C(Nc1ccc2oc(-c3cccnc3)nc2c1)[C@H]1C[C@H]1c1ccccc1 [Compound 59] ?
a: 4.30 to 5.30

q: Follow-up item: CN1CCN(Cc2ccc(NC(=O)Nc3ccc4oc(-c5cccnc5)nc4c3)cc2C(F)(F)F)CC1 [Compound 15]
a: < 4.00

q: Same question for Cn1nc(Nc2c(NC3CCCC3)c(=O)c2=O)cc1-c1ccc2nc(N)ncc2c1 [Compound 76] please.
a: 4.00 to 4.30

q: Next record, please: CN1CCN(Cc2ccc(NC(=O)Nc3cc(-c4ccc5ncncc5c4)n(C)n3)cc2C(F)(F)F)CC1 [Compound 22]
a: ≥ 5.30
